From: the kinase profiling compilation of Christmann-Franck et al. (2016)

molecular target: CDK2 CCNA2 (human) (UniProt P24941+P20248); experiment: Free Choice Kinase Assay Projects, Flashplate; conditions: compound 10.0 µM; ATP 0.3 µM
Sequence (P20248 whole entry, looked up, other chains not shown): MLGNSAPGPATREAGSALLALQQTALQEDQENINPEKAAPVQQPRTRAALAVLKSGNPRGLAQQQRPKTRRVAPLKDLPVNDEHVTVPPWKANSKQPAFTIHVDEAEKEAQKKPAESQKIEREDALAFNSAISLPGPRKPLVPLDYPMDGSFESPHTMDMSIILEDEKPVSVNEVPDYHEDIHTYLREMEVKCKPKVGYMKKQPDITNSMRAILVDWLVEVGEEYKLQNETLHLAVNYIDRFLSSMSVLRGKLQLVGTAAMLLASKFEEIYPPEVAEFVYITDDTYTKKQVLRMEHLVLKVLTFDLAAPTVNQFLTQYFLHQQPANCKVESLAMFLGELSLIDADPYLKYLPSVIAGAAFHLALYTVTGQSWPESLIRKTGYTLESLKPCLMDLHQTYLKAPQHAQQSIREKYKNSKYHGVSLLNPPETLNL
Property: residual activity; scope: individual compounds

# COMPOUND, residual activity
rows = [
    ("CC(Nc1cc(-c2nc(SCc3ccccc3)[nH]c2-c2ccc(F)cc2)ccn1)c1ccccc1 (stereo not given)", "17%"),
    ("CSc1nc(-c2ccnc(F)c2)c(-c2ccc(F)cc2)[nH]1", "125%"),
    ("CSc1nc(-c2ccnc(NC(C)=O)c2)c(-c2ccc(F)cc2)n1C", "111%"),
    ("CSc1ccc(CSc2nc(-c3ccncc3)c(-c3ccc(Br)cc3)[nH]2)cc1", "64%"),
    ("Fc1ccc(-c2[nH]c(SCc3ccccc3)nc2-c2ccnc(F)c2)cc1", "71%"),
    ("CSc1ccccc1CSc1nc(-c2ccncc2)c(-c2ccc(F)cc2)[nH]1", "66%"),
    ("N#CCSc1nc(-c2ccncc2)c(-c2ccc(F)cc2)[nH]1", "90%"),
    ("Fc1ccc(-c2[nH]c(SCCCc3ccccc3)nc2-c2ccncc2)cc1", "54%"),
    ("Oc1cccc(CSc2nc(-c3ccncc3)c(-c3ccc(F)cc3)[nH]2)c1", "126%"),
    ("Fc1ccc(-c2[nH]c(SCC3CCCCC3)nc2-c2ccncc2)cc1", "74%"),
]

====

Measured residual activity of individual entries
molecular target: KDR (human) (UniProt P35968); test: Free Choice Kinase Assay Projects, Flashplate; details: compound 10.0 µM; ATP 1 µM
Sequence (P35968 whole entry, looked up): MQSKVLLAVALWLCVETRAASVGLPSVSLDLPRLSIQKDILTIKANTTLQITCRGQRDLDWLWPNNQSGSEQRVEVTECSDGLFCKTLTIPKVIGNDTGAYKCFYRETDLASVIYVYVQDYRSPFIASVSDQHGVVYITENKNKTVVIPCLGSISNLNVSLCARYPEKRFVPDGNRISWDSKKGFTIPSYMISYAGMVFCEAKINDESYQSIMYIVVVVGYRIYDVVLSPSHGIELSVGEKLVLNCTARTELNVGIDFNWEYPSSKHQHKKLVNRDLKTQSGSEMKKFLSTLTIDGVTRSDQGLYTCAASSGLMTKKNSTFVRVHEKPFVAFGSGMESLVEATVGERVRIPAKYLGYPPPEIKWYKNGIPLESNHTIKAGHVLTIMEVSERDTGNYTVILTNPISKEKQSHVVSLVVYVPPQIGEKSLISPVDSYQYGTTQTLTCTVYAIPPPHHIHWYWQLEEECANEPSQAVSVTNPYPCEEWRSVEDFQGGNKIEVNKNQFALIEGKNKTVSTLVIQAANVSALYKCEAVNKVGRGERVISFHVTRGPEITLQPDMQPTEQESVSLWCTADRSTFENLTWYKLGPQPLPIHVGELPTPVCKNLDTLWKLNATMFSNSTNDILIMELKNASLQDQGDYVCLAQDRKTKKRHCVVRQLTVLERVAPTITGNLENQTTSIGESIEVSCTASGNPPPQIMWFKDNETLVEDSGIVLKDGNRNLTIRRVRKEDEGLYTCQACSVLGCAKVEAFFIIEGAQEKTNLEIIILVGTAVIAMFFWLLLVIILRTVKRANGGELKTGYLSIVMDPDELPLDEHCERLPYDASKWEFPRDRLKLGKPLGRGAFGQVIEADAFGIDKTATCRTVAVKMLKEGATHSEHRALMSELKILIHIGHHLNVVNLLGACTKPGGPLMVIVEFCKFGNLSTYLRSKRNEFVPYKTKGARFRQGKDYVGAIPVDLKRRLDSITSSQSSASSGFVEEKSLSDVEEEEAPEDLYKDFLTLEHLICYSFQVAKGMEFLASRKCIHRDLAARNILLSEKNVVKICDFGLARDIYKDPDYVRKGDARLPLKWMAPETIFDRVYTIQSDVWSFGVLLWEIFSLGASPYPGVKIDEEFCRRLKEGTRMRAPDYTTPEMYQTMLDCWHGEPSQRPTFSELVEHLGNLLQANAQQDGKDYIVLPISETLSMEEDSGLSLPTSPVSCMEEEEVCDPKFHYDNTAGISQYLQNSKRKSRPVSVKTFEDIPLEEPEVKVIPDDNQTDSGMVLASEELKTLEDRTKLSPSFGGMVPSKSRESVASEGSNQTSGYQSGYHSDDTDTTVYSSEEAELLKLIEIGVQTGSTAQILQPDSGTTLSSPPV

# SMILES STR, residual activity
records = [
    ("CSc1nc(-c2ccnc(N(C(=O)C3CC3)C(=O)C3CC3)c2)c(-c2ccc(F)cc2)n1C", "14%"),
    ("Fc1ccc(-c2[nH]c(SCCc3ccccc3)nc2-c2ccncc2)cc1", "45%"),
    ("CSc1ccc(CSc2nc(-c3ccncc3)c(-c3ccc(Br)cc3)[nH]2)cc1", "51%"),
    ("Fc1ccc(-c2[nH]c(SCc3cccc4ccccc34)nc2-c2ccncc2)cc1", "24%"),
]

====

target: PDGFRB (human) (UniProt P09619); assay: Free Choice Kinase Assay Projects, Flashplate; settings: compound 10.0 µM; ATP 0.3 µM
Sequence (P09619 whole entry, looked up): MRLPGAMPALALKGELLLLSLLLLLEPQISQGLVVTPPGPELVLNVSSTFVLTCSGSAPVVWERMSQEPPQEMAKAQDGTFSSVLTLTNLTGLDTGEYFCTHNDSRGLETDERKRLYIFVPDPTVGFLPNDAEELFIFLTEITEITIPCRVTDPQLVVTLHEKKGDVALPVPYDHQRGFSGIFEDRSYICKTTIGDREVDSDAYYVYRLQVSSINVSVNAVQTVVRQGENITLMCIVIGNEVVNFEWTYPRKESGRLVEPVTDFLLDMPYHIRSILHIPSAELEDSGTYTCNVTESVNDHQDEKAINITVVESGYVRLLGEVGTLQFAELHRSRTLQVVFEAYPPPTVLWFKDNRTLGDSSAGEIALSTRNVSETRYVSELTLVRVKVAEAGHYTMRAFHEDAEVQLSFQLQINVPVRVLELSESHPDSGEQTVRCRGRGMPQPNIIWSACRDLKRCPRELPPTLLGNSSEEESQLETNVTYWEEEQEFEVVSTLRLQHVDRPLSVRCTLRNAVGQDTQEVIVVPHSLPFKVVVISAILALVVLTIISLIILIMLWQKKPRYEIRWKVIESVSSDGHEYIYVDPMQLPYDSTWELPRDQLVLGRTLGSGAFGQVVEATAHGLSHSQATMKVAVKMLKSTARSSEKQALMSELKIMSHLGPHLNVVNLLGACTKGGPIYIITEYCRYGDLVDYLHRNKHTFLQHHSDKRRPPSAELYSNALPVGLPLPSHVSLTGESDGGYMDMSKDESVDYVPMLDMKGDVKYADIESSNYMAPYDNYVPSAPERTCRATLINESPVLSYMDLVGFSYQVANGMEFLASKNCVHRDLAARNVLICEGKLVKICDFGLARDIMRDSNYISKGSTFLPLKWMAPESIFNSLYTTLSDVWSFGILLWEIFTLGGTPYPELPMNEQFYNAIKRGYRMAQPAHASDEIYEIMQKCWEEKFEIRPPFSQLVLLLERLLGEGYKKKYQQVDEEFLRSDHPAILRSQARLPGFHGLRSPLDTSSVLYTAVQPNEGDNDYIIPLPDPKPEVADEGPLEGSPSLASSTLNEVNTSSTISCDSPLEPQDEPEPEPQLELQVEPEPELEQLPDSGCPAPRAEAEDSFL
Param threshold (60%) applies to residual activity; output met when value >= threshold, not met when value < threshold.

# MOLECULE, ASSIGNED LABEL
measured = [
    ("Fc1ccc(-c2[nH]c(SCc3ccccc3)nc2-c2ccnc(Cl)c2)cc1", "not met"),
    ("Fc1ccc(-c2[nH]c(CCc3ccccc3)nc2-c2ccncc2)cc1", "not met"),
    ("N#CCSc1nc(-c2ccncc2)c(-c2ccc(F)cc2)[nH]1", "not met"),
    ("Fc1ccc(-c2[nH]c(SCc3ccccc3)nc2-c2ccncc2)cc1", "met"),
    ("COc1ccc(C(=O)Nc2cc(-c3nc(SC)n(C)c3-c3ccc(F)cc3)ccn2)cc1", "not met"),
    ("CC(Nc1cc(-c2nc(SCc3ccccc3)[nH]c2-c2ccc(F)cc2)ccn1)c1ccccc1 (stereo unspecified)", "not met"),
    ("CSc1nc(-c2ccnc(N(C(=O)C3CC3)C(=O)C3CC3)c2)c(-c2ccc(F)cc2)n1C", "not met"),
    ("CSc1ccccc1CSc1nc(-c2ccncc2)c(-c2ccc(F)cc2)[nH]1", "met"),
    ("Fc1ccc(-c2[nH]c(SCCc3ccccc3)nc2-c2ccncc2)cc1", "met"),
    ("Fc1ccc(-c2[nH]c(SCC3CCCCC3)nc2-c2ccncc2)cc1", "met"),
    ("On1c(CCc2ccccc2)nc(-c2ccncc2)c1-c1ccc(F)cc1", "not met"),
    ("On1c(/C=C/c2ccccc2)nc(-c2ccncc2)c1-c1ccc(F)cc1", "not met"),
    ("Oc1cccc(CSc2nc(-c3ccncc3)c(-c3ccc(F)cc3)[nH]2)c1", "not met"),
    ("Fc1ccc(-c2[nH]c(SCc3cccc4ccccc34)nc2-c2ccncc2)cc1", "not met"),
    ("Oc1ccccc1CSc1nc(-c2ccncc2)c(-c2ccc(F)cc2)[nH]1", "met"),
    ("CSc1nc(-c2ccnc(F)c2)c(-c2ccc(F)cc2)[nH]1", "met"),
    ("Oc1ccc(CSc2nc(-c3ccncc3)c(-c3ccc(F)cc3)[nH]2)cc1", "met"),
    ("Fc1ccc(-c2[nH]c(SCc3ccccc3)nc2-c2ccnc(F)c2)cc1", "met"),
    ("CSc1nc(-c2ccnc(NC(=O)C3CC3)c2)c(-c2ccc(F)cc2)n1C", "not met"),
    ("Fc1ccc(-c2[nH]c(SCCCc3ccccc3)nc2-c2ccncc2)cc1", "met"),
    ("CSc1nc(-c2ccnc(NC(C)=O)c2)c(-c2ccc(F)cc2)n1C", "not met"),
]
